Reference source: PubChem BioAssay (NCI)

System: MOLT-4 leukemia
ASSAY_PROCEDURE: NCI tumour cell line growth inhibition, 48 h
QUANTITY_KIND: TGI

Sample answers from the record:
>>> value("CCOC(=O)C(NC(=O)c1ccco1)(Nc1nc2ccc(OCC)cc2s1)C(F)(F)F (stereo unspecified)")
"> 100 µM"
>>> value("COc1cc2c(cc1OCCCCN1C(=O)c3cccc4cccc(c34)C1=O)N=C[C@@H]1CCCN1C2=O")
"> 100 µM"
>>> value("CCCCCCCCC/C=C/C=C/C(=O)NCC(=O)NC1C(O)C(O)C(Nc2ncnc3nc[nH]c23)OC1C(O)CO (stereo unspecified)")
"> 100 µM"
>>> value("CCOC(=O)c1cn2c(n1)sc1c(Cl)c(Cl)ccc12")
"> 40 µM"
>>> value("C1=CC=C2NCCCCCCCNC3=CC=CC=CC3=NCCCCCCCN=C2C=C1")
"> 100 µM"

Ask: Look up TGI with MOLT-4 leukemia for this molecule: S=C1N(/N=C/c2c3ccccc3cc3ccccc23)C(=Nc2ccccc2)C(=Nc2ccccc2)N1c1ccccc1
Reply: > 100 µM

Ask: Look up TGI with MOLT-4 leukemia for this molecule: Cn1c(O)c(C=Nc2ccccc2[N+](=O)[O-])c(=O)n(C)c1=O
Reply: > 100 µM

Ask: Look up TGI with MOLT-4 leukemia for this molecule: Cc1cc(N(CCC#N)CCC#N)ccc1/C(N=Nc1ccc(C(=O)O)cc1)=N\NC(=O)c1cc(Cl)ccc1O
Reply: > 100 µM

Ask: Look up TGI with MOLT-4 leukemia for this molecule: CCn1c(SCC(=O)NNC(=S)Nc2ccc([N+](=O)[O-])cc2)nc2ccccc2c1=O
Reply: 65.8 µM

Ask: Look up TGI with MOLT-4 leukemia for this molecule: O=C1NC(=S)N/C1=C\c1ccc(Br)s1
Reply: > 100 µM

Ask: Look up TGI with MOLT-4 leukemia for this molecule: O=C1c2cccc(NCCN=Cc3cc([N+](=O)[O-])ccc3O)c2C(=O)c2c(NCCN=Cc3cc([N+](=O)[O-])ccc3O)cccc21
Reply: 16.7 µM

Ask: Look up TGI with MOLT-4 leukemia for this molecule: COc1ccc(CC(=O)N2CCC3(C)CC(=O)CC=C23)cc1OC (stereo unspecified)
Reply: > 100 µM

Ask: Look up TGI with MOLT-4 leukemia for this molecule: CC(=O)O[C@H]1C(=O)[C@@]2(C)[C@H]([C@H](OC(=O)c3ccccc3)[C@]3(O)C[C@H](OC(=O)[C@H](O)[C@@H](NC(=O)c4cccc(N=[N+]=[N-])c4)c4ccccc4)C(C)=C1C3(C)C)[C@]1(OC(C)=O)CO[C@@H]1C[C@@H]2O
Reply: 1.12 µM

Ask: Look up TGI with MOLT-4 leukemia for this molecule: Cc1cc(O)c(C2=NN(c3ccc(S(N)(=O)=O)cc3)C(c3ccccc3Cl)C2)cc1Cl (stereo unspecified)
Reply: > 100 µM

Ask: Look up TGI with MOLT-4 leukemia for this molecule: NCCSC(c1ccccc1)c1ccccc1
Reply: 42.6 µM

Ask: Look up TGI with MOLT-4 leukemia for this molecule: COC1=CC(c2ccc[nH]2)=N/C1=C\c1[nH]c(C)c(C(=O)CCCCC(=O)NC(C)(C)C)c1C
Reply: 4.29 µM

Ask: Look up TGI with MOLT-4 leukemia for this molecule: Cc1cccc(CP(Cc2cccc(C)c2)CC2(Cp3c4ccccc4c4ccccc43)COC2)c1
Reply: 37.8 µM

Ask: Look up TGI with MOLT-4 leukemia for this molecule: CCCCCCC(=O)O[C@H]1CC[C@H]2[C@@H]3CCC4C/C(=N/NC(=O)c5cccc6c(=O)c7ccccc7[nH]c56)C=C(C)[C@]4(C)[C@H]3CC[C@]12C (stereo partly specified)
Reply: > 25 µM

Ask: Look up TGI with MOLT-4 leukemia for this molecule: C[C@H](NC(=O)c1ccc(CNC(=O)/C=C/c2cccc(Oc3ccccc3)c2)cc1)c1ccccc1
Reply: > 100 µM

Ask: Look up TGI with MOLT-4 leukemia for this molecule: CCOC(=O)Cn1c(=O)c2nc(SC)sc2n(CC)c1=S
Reply: > 100 µM
